The origin of these recorded values is paper PMC5540273.

Catalogue of compounds with associated %Inh
Test system: CDC2L2;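 further: KINOMEscan kinase panel screen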
condition-description: concentration: 1 μM, replicates: in singlicate; n = 1

Sample answers from the record:
Fc1ccc(-c2ncn(CCCNCc3ccccc3)c2-c2ccncc2)cc1 :: 0%
Oc1ccc2ncnc(Nc3ccc(OCc4ccccc4)cc3)c2c1 [GI262866] :: 0%
FC(F)(F)c1ccc(-c2cc(-c3c[nH]nc3-c3ccccn3)ccn2)cc1 [GW599550] :: 26%

Consider now this further compound.
// compound C[C@H]1CC[C@@H](C(=O)Nc2ccccc2)CN1c1cc(-c2ccc3c(N)n[nH]c3c2)nc(N)n1 [GSK2283293] , assay CDC2L2, %Inh value: 13%
